Source listed as paper PMC9273165.

- Tested on: PC3 (prostate) human cancer cell line
- assay name: resazurin-based cytotoxicity assay, PC3
- Assay type: cell-based
- condition summary: PC3 (prostate), 72 h incubation, mean ± SD of triplicate wells
Assign IC50 to each entry below.

For the record COC(=O)/C(C#N)=C/c1c(N2CCOCC2)c2ccccc2oc1=O , what value of IC50 is listed for PC3 (prostate) human cancer cell line?
> 50 µM

Another: COC(=O)/C(C#N)=C/c1c(N2CCC(O)CC2)c2ccccc2oc1=O
> 50 µM

Next record, please: COC(=O)/C(C#N)=C/c1c(N2CCCC2)c2ccccc2oc1=O
> 80 µM

Subsequent entry: O=Cc1c(N2CCOCC2)c2ccccc2oc1=O
31.1 µM

Note, next up: O=c1oc2ccccc2c(N2CCCC2)c1[N+](=O)[O-]
> 80 µM

Continue with N#CC(C#N)=Cc1c(N2CCC(O)CC2)c2ccccc2oc1=O
> 80 µM

Here is the next compound: COC(=O)/C(C#N)=C/c1c(OC)c2ccccc2oc1=O
38.9 µM

Repeat for the following compound: N#CC(C#N)=C(N)/C(C#N)=C/c1c(N2CCCCC2)c2ccccc2oc1=O
> 80 µM

Please do the same for N#CC(C#N)=Cc1c(N2CCOCC2)c2ccccc2oc1=O as well.
20.2 µM

Follow-up item: COC(=O)/C(C#N)=C/c1c(N2CCCCC2)c2ccccc2oc1=O
> 50 µM
